experimentalSystem: Scavenger receptor class B member 1 (Mus musculus)
assay: inhibitors of SR-BI-mediated HDL uptake, dose response, cell-based, ldlA[mSR-BI] CHO, DiI fluorescence, dry powder, set 10 (AID 624029)
settings: 3 h, at 35 µM (top of the series)
Calls of active or inactive are those of the source.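 Rule for the calls: active = compounds lowering HDL uptake fluorescence with a fitted half-maximal potency at most twice the top tested dose; inconclusive = flat partial inhibition of 30 to 70% or an unreliable fit; inactive = the rest.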
measurementKind: activity change, negative = inhibition

CC(C)NC(=O)Nc1ccc2c(c1)CC(=O)N([C@H](C)CO)C[C@@H](C)[C@H](CN(C)S(=O)(=O)c1ccc(Cl)cc1)O2 | inactive
C[C@@H]1CN([C@H](C)CO)C(=O)c2cc(NC(=O)Nc3ccc(F)cc3)ccc2O[C@H]1CN(C)S(=O)(=O)c1ccc(Cl)cc1 | inactive
CC(C)NC(=O)Nc1cccc2c1O[C@@H](CN(C)S(=O)(=O)c1ccc(Cl)cc1)[C@H](C)CN([C@H](C)CO)C2=O | inactive
C=CCOC(=O)N(C)C[C@@H]1Oc2ccc(NC(=O)OCC3c4ccccc4-c4ccccc43)cc2C(=O)N([C@H](C)CO)C[C@H]1C | inactive
CC(C)NC(=O)Nc1ccc2c(c1)C(=O)N([C@H](C)CO[Si](C)(C)C(C)(C)C)C[C@@H](C)[C@H](CN(C)S(=O)(=O)c1ccc(Cl)cc1)O2 | inactive
CNC[C@@H]1Oc2ccc(NC(=O)NC(C)C)cc2C(=O)N([C@H](C)CO[Si](C)(C)C(C)(C)C)C[C@H]1C | inactive
C=CCOC(=O)N(C)C[C@@H]1Oc2ccc(NC(=O)NC(C)C)cc2C(=O)N([C@H](C)CO[Si](C)(C)C(C)(C)C)C[C@H]1C | inactive
